assay: Photoreaction quantum yields and cross sections (HPLC, Reinecke's salt actinometry); format: physicochemical; settings: λex 690 nm, 0.1 eq Os, N2; ε of Os(bptpy)2·2PF6 at 688 nm
MEASUREMENT_KIND: Cross section Φrε(λex)
In your response, put the unit directly after the numeric value.

The following compounds have reported results that may help.
- COMPOUND: "COc1ccc(CCNC(=O)OCC2=C3C(C)=C(I)C(C)=[N+]3[B-](C)(C)n3c(C)c(I)c(C)c32)cc1OC"
  VALUE_REPORTED: "170.82 ± 9.14 M⁻¹ cm⁻¹"
- COMPOUND: "CC1=C(I)C(C)=[N+]2C1=C(COC(=O)NCCc1ccc(O)cc1)c1c(C)c(I)c(C)n1[B-]2(C)C"
  VALUE_REPORTED: "107.25 ± 5.46 M⁻¹ cm⁻¹"
- COMPOUND: "CC1=C(I)C(C)=[N+]2C1=C(COC(=O)/C=C/c1cccc(OCc3ccccc3)c1)c1c(C)c(I)c(C)n1[B-]2(C)C"
  VALUE_REPORTED: "200.64 ± 7.30 M⁻¹ cm⁻¹"
- COMPOUND: "CC1=C(I)C(C)=[N+]2C1=C(COC(=O)NCCc1ccc(O)c(O)c1)c1c(C)c(I)c(C)n1[B-]2(C)C"
  VALUE_REPORTED: "159.00 ± 4.58 M⁻¹ cm⁻¹"
- COMPOUND: "CCCCN(C(=O)OCC1=C2C(C)=C(I)C(C)=[N+]2[B-](C)(C)n2c(C)c(I)c(C)c21)c1ccc(C(=O)OCCN(C)C)cc1"
  VALUE_REPORTED: "95.21 ± 10.62 M⁻¹ cm⁻¹"

Given the compound CC1=C(I)C(C)=[N+]2C1=C(COC(=O)C(C)c1ccc(CC(C)C)cc1)c1c(C)c(I)c(C)n1[B-]2(C)C (centres unmarked) , what is its reported Cross section Φrε(λex)?
111.67 ± 10.81 M⁻¹ cm⁻¹

Next entry: CC1=C(I)C(C)=[N+]2C1=C(COC(=O)Cc1cccc3c(=O)c4ccc(C)c(C)c4oc13)c1c(C)c(I)c(C)n1[B-]2(C)C
190.05 ± 16.63 M⁻¹ cm⁻¹

Next entry: COc1ccc2c(c1)c(CC(=O)OCC1=C3C(C)=C(I)C(C)=[N+]3[B-](C)(C)n3c(C)c(I)c(C)c31)c(C)n2C(=O)c1ccc(Cl)cc1
158.79 ± 10.80 M⁻¹ cm⁻¹

* * *

# Quantum yield of prodrug photolysis Φp per entry
experiment: Photoreaction quantum yields and cross sections (HPLC, Reinecke's salt actinometry); format: physicochemical; settings: λex 690 nm, 0.1 eq Os, N2

The following compounds have reported results that may help.
- COMPOUND: "CC1=C(I)C(C)=[N+]2C1=C(COC(=O)NCCc1ccc(O)c(O)c1)c1c(C)c(I)c(C)n1[B-]2(C)C [BODIPY-DPA, BODIPY-dopamine]"
  VALUE_REPORTED: "0.86 ± 0.01%"
- COMPOUND: "COc1ccc(CCNC(=O)OCC2=C3C(C)=C(I)C(C)=[N+]3[B-](C)(C)n3c(C)c(I)c(C)c32)cc1OC [BODIPY-HVA, BODIPY-homoveratrylamine]"
  VALUE_REPORTED: "0.85 ± 0.04%"
- COMPOUND: "CC1=C(I)C(C)=[N+]2C1=C(COC(=O)C(C)c1ccc(CC(C)C)cc1)c1c(C)c(I)c(C)n1[B-]2(C)C (centres unmarked) [BODIPY-IBF, BODIPY-ibuprofen]"
  VALUE_REPORTED: "0.85 ± 0.04%"
- COMPOUND: "CCCCN(C(=O)OCC1=C2C(C)=C(I)C(C)=[N+]2[B-](C)(C)n2c(C)c(I)c(C)c21)c1ccc(C(=O)OCCN(C)C)cc1 [BODIPY-TCI, BODIPY-tetracaine]"
  VALUE_REPORTED: "0.81 ± 0.06%"
- COMPOUND: "CC1=C(I)C(C)=[N+]2C1=C(COC(=O)Cc1cccc3c(=O)c4ccc(C)c(C)c4oc13)c1c(C)c(I)c(C)n1[B-]2(C)C [BODIPY-DMXAA, BODIPY-vadimezan]"
  VALUE_REPORTED: "0.87 ± 0.01%"

Given the compound CC1=C(I)C(C)=[N+]2C1=C(COC(=O)NCCc1ccc(O)cc1)c1c(C)c(I)c(C)n1[B-]2(C)C [BODIPY-TyrA, BODIPY-tyramine] , what is its reported Quantum yield of prodrug photolysis Φp?
0.84 ± 0.02%

Next entry: CC1=C(I)C(C)=[N+]2C1=C(COC(=O)/C=C/c1cccc(OCc3ccccc3)c1)c1c(C)c(I)c(C)n1[B-]2(C)C [BODIPY-BCA, BODIPY-benzyloxycinnamic acid]
0.80 ± 0.02%

Next entry: COc1ccc2c(c1)c(CC(=O)OCC1=C3C(C)=C(I)C(C)=[N+]3[B-](C)(C)n3c(C)c(I)c(C)c31)c(C)n2C(=O)c1ccc(Cl)cc1 [BODIPY-IDM, BODIPY-indomethacin]
0.86 ± 0.02%

Provenance of the data: patent US20250000979A1
